Items are presented alongside their recorded IC50.
- measured_on: EGFR L792F (Homo sapiens, UniProt P00533, L792F)
- Sequence (P00533 25-1210 L792F): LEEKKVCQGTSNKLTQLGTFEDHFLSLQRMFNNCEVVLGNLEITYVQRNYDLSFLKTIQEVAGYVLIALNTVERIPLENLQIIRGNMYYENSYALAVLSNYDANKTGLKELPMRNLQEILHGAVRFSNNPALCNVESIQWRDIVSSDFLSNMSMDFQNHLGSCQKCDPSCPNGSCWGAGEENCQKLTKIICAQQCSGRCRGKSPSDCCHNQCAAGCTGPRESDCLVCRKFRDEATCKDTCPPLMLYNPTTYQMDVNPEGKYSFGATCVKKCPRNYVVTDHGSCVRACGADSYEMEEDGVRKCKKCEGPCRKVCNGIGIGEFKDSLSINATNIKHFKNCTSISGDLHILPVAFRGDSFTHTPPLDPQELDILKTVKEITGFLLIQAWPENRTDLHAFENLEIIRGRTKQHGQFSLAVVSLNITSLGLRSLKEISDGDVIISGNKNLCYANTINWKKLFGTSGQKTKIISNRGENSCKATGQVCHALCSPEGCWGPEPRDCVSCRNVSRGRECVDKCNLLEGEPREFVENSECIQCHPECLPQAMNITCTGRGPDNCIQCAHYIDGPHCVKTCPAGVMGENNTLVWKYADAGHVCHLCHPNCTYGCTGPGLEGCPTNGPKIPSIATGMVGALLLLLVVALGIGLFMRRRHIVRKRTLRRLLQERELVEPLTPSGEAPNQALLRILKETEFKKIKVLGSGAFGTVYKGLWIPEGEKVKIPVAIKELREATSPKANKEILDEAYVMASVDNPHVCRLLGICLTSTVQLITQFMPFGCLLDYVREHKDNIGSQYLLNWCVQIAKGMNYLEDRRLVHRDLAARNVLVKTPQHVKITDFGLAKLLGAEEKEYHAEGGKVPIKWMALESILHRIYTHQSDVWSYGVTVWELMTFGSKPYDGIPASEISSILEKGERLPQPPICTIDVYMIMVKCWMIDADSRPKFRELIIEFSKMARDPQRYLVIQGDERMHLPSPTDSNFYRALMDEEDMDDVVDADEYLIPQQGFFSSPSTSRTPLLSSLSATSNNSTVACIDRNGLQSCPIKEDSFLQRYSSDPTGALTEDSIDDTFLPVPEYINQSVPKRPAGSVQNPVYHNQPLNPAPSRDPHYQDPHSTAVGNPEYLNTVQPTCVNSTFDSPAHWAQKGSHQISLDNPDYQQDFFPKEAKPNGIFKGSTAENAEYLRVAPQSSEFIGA
- procedure_details: Mutant EGFR biochemical activity assay (HTRF)
Form entry: value (nM) — number only.

> print(dat)
                                   compound  metric.name  value.reported
1  C=CC(=O)Nc1cc(Nc2nccc(-n3c(=O)n4c5c(cccc53)CCC4)n2)c(OC)cc1N(C)CCN(C)C [Compound 2]         IC50            1.65

Could you tell me which IC50 is on file for C=CC(=O)Nc1cc(Nc2nccc(-n3c(=O)n4c5c(cccc53)CCC4)n2)c(OC)nc1N(C)CCN(C)C [Compound 4] ? 0.415

Could you tell me which IC50 is on file for C=CC(=O)Nc1cc(Nc2nccc(-n3c(=O)n4c5c(cc(F)cc53)CCC4)n2)c(OC)cc1N(C)CCN(C)C [Compound 1] ? 1.26

Could you tell me which IC50 is on file for C=CC(=O)Nc1cc(Nc2nccc(-n3c(=O)n4c5c(cccc53)CCC4)n2)c(OCC(F)(F)F)nc1N(C)CCN(C)C [Compound 6] ? 4.09

====

- measured_on: EGFR A763_Y764insFHEA (Homo sapiens, UniProt P00533, INS763FHEA)
- Sequence (P00533 with tags, fused parts or gaps INS763FHEA limits assumed): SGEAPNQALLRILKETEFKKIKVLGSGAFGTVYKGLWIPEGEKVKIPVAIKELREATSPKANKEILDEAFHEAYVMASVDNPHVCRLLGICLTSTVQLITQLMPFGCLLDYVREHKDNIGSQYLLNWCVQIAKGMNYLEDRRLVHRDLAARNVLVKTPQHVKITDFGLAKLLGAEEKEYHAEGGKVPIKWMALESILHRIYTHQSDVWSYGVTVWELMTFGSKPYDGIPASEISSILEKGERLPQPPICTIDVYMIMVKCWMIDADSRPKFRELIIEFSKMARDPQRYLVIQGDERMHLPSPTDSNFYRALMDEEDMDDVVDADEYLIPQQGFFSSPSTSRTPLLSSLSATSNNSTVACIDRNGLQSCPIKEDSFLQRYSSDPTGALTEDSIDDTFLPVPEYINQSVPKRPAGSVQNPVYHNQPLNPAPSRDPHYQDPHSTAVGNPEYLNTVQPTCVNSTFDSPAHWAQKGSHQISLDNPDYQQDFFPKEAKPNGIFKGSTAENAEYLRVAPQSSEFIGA
- procedure_details: Mutant EGFR biochemical activity assay (HTRF)
- recorded_conditions: read-out: IC50 (nM) EGFR A763_Y764 insFHEA
metric_name: IC50 (nM)
Form entry: value (nM) — number only.

> print(dat)
                      smiles.representation  result.units  value.reported
1  C=CC(=O)Nc1cc(Nc2nccc(-n3c(=O)n4c5c(cccc53)CCC4)n2)c(OC)nc1N(C)CCN(C)C            nM           0.143
2  C=CC(=O)Nc1cc(Nc2nccc(-n3c(=O)n4c5c(cccc53)CCC4)n2)c(OCC(F)(F)F)nc1N(C)CCN(C)C            nM           0.149
3  C=CC(=O)Nc1cc(Nc2nccc(-n3c(=O)n4c5c(cccc53)CCC4)n2)c(OC)cc1N(C)CCN(C)C            nM           0.299

Shifting focus to the molecule that follows.
Could you tell me which IC50 is on file for C=CC(=O)Nc1cc(Nc2nccc(-n3c(=O)n4c5c(cc(F)cc53)CCC4)n2)c(OC)cc1N(C)CCN(C)C ? 0.264

====

Items are presented alongside their recorded IC50.
- measured_on: EGFR L792H (Homo sapiens, UniProt P00533, L792H)
- Sequence (P00533 25-1210 L792H): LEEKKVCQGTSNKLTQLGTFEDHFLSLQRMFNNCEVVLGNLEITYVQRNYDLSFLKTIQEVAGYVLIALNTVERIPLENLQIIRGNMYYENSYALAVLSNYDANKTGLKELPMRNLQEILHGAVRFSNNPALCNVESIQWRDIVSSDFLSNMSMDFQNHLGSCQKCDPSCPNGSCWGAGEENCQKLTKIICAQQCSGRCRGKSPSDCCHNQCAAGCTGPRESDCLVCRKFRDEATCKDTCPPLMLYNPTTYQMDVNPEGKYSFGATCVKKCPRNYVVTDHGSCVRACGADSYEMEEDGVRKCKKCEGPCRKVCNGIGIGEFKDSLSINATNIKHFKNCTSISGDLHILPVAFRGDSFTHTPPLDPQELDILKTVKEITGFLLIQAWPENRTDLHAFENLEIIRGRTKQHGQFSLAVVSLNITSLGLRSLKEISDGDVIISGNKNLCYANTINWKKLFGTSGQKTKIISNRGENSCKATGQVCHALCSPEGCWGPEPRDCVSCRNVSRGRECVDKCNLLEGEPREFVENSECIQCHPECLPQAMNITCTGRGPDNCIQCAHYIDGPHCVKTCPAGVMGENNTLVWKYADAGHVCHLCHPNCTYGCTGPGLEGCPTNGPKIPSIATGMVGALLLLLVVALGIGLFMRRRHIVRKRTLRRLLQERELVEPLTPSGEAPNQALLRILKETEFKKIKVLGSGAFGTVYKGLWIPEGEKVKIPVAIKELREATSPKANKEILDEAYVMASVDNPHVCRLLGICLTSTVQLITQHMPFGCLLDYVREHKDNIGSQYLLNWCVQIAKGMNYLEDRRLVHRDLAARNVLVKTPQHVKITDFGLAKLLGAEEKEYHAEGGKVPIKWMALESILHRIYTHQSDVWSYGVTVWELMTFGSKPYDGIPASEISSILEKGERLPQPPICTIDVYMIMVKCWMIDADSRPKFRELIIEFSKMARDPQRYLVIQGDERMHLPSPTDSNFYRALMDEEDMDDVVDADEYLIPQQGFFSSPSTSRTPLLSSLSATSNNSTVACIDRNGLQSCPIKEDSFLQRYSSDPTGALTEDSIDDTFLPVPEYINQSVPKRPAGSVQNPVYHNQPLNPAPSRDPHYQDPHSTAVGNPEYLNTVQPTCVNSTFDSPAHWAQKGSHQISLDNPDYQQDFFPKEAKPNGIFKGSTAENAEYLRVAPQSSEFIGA
- procedure_details: Mutant EGFR biochemical activity assay (HTRF)

> print(dat)
                                   compound  value.reported
1  C=CC(=O)Nc1cc(Nc2nccc(-n3c(=O)n4c5c(cc(F)cc53)CCC4)n2)c(OC)cc1N(C)CCN(C)C [Compound 1]         27.6 nM
2  C=CC(=O)Nc1cc(Nc2nccc(-n3c(=O)n4c5c(cccc53)CCC4)n2)c(OC)cc1N(C)CCN(C)C [Compound 2]         46.9 nM
3  C=CC(=O)Nc1cc(Nc2nccc(-n3c(=O)n4c5c(cccc53)CCC4)n2)c(OC)nc1N(C)CCN(C)C [Compound 4]         15.6 nM

Shifting focus to the compound that follows.
Could you tell me which IC50 is on file for C=CC(=O)Nc1cc(Nc2nccc(-n3c(=O)n4c5c(cccc53)CCC4)n2)c(OCC(F)(F)F)nc1N(C)CCN(C)C [Compound 6] ? > 100 nM
